- TESTED ON: CA-IX (Homo sapiens)
- Construct: His tag (C); purchased R&D Systems Inc. 2188-CA; host or cells: mouse myeloma cell line NS0
- TEST NAME: CA-IX combinatorial library screening, competitive fluorescence-based assay with dansylamide (DNSA)
- Type: binding
- TEST CONDITIONS: Table 2, Libraries 4-7; sample concentrations 100 nM and 1000 nM, DNSA 200 μM; screening at 1 μM
METRIC: In Vitro Binding Assay (Library Screening)

Recorded results for 4 molecules are shown here.
Cc1onc(-c2ccccc2)c1CNC(=O)[C@H](Cc1ccccc1)n1cc(COc2ccc3nc(S(N)(=O)=O)sc3c2)nn1
√ √
CCOC(=O)C1CCN(C(=O)[C@H](Cc2ccccc2)n2cc(COc3ccc4nc(S(N)(=O)=O)sc4c3)nn2)CC1
√
CCOC(=O)C1CCN(C(=O)[C@H](C(C)C)n2cc(COc3ccc4nc(S(N)(=O)=O)sc4c3)nn2)CC1
√
NS(=O)(=O)c1nc2ccc(OCc3cn([C@@H](Cc4ccccc4)C(=O)NCC4COc5ccccc5O4)nn3)cc2s1 (some centres unmarked)
√

Any idea what In Vitro Binding Assay (Library Screening) was measured for NS(=O)(=O)c1nc2ccc(OCc3cn([C@@H](Cc4ccccc4)C(=O)NCc4ccc(C(F)(F)F)cc4)nn3)cc2s1 ?
√

Another molecule: CC(C)[C@@H](C(=O)NCC1COc2ccccc2O1)n1cc(COc2ccc3nc(S(N)(=O)=O)sc3c2)nn1 (some centres unmarked)
√

Another molecule: CC(C)[C@@H](C(=O)NCc1ccc(C(F)(F)F)cc1)n1cc(COc2ccc3nc(S(N)(=O)=O)sc3c2)nn1
√ √

Another molecule: COC(=O)C(C)NC(=O)[C@H](Cc1ccccc1)n1cc(COc2ccc3nc(S(N)(=O)=O)sc3c2)nn1 (some centres unmarked)
√

----------
- TESTED ON: CA-IX (Homo sapiens)
- Construct: His tag (C); purchased R&D Systems Inc. 2188-CA; host or cells: mouse myeloma cell line NS0
- TEST NAME: Binding affinity (Kd) determination for CA-IX inhibitors, DNSA fluorescence competition assay, Scatchard plots
- TEST CONDITIONS: Table 3
METRIC: Kd (nM)
Please reply with the bare figure in nM and do not write the unit itself.

Recorded results for 3 compounds are shown here.
NS(=O)(=O)c1nc2cc(OCc3cn(C(CCO)C(=O)NC(CSCc4cccc(OCCF)c4)C(=O)O)nn3)ccc2s1 (single isomer, unassigned) [VM2-107b]
5
CC(C)[C@@H](C(=O)NCc1ccc(C(F)(F)F)cc1)n1cc(COc2ccc3nc(S(N)(=O)=O)sc3c2)nn1 [DHK2-24]
1
CC(C)[C@@H](C(=O)N[C@@H](Cc1ccc(OCCO)cc1)C(=O)O)n1cc(COc2ccc3nc(S(N)(=O)=O)sc3c2)nn1 [VM4021]
3.3

Next up:
Any idea what Kd was measured for NS(=O)(=O)c1nc2ccc(OCc3cn([C@@H](Cc4ccc(OCCF)cc4)C(=O)NCc4ccc(OC(F)(F)F)cc4)nn3)cc2s1 [DHK2-176] ?
5

----------
- TESTED ON: CA-IX (Homo sapiens)
- Construct: His tag (C); purchased R&D Systems Inc. 2188-CA; host or cells: mouse myeloma cell line NS0
- TEST NAME: CA-IX combinatorial library screening, competitive fluorescence-based assay with dansylamide (DNSA)
- Format: binding
- TEST CONDITIONS: 1 h; Table 2, Libraries 4-7; sample concentrations 100 nM and 1000 nM, DNSA 200 μM; screening at 1 μM; read-out: In Vitro Binding Assay (Library (Screening))
Some compounds, each annotated with its measured inhibition at 1 µM.

CCOC(=O)CCN(Cc1ccco1)C(=O)[C@H](Cc1ccccc1)n1cc(-c2ccc(S(N)(=O)=O)cc2)nn1
< 40%
NS(=O)(=O)c1nc2ccc(OCc3cn([C@@H](Cc4ccccc4)C(=O)NCc4ccc(F)cc4)nn3)cc2s1
< 40%
CC(C)[C@@H](C(=O)NCc1ccc(-c2ccccn2)s1)n1cc(COc2ccc3nc(S(N)(=O)=O)sc3c2)nn1
< 40%

Query the reported inhibition at 1 µM for CA-IX (Homo sapiens); item: CCOC(=O)CCN(Cc1ccco1)C(=O)[C@H](C(C)C)n1cc(-c2ccc(S(N)(=O)=O)cc2)nn1
< 40%

Another compound: NS(=O)(=O)c1ccc(-c2cn([C@@H](Cc3ccccc3)C(=O)N3CCC(N4CCCC4)CC3)nn2)cc1
< 40%

Another compound: CCOC(=O)C(Cc1ccccc1)NC(=O)[C@H](Cc1ccccc1)n1cc(COc2ccc3nc(S(N)(=O)=O)sc3c2)nn1 (stereo partly shown)
< 40%

Another compound: CCOC(=O)C1CCN(C(=O)[C@H](Cc2ccccc2)n2cc(-c3ccc(S(N)(=O)=O)cc3)nn2)CC1
< 40%

Another compound: CC(C)[C@@H](C(=O)N1CCC[C@@H]1CO)n1cc(COc2ccc3nc(S(N)(=O)=O)sc3c2)nn1
< 40%

Another compound: NS(=O)(=O)c1ccc(-c2cn([C@@H](Cc3ccccc3)C(=O)NCc3ccc(F)cc3)nn2)cc1
< 40%

Another compound: CC(C)[C@@H](C(=O)NCCN1CCN(Cc2ccccc2)CC1)n1cc(-c2ccc(S(N)(=O)=O)cc2)nn1
< 40%

Another compound: COC(=O)C(C)NC(=O)[C@H](C(C)C)n1cc(COc2ccc3nc(S(N)(=O)=O)sc3c2)nn1 (stereo partly shown)
< 40%

Another compound: Cc1onc(-c2ccccc2)c1CNC(=O)[C@H](C(C)C)n1cc(-c2ccc(S(N)(=O)=O)cc2)nn1
< 40%

Another compound: CC(C)[C@@H](C(=O)NCc1ccccn1)n1cc(COc2ccc3nc(S(N)(=O)=O)sc3c2)nn1
< 40%

src = patent US7829063B2
